Tested on: ML-2
test_description: cell viability (% survival relative to DMSO control, bortezomib = 0%); higher = less cytotoxic
experimental_conditions: 1000 nM; 72 h
property_name: cell viability (%)

In [3]: df
Out[3]:
                                   molecule   property_name  endpoint_value
0          [N-]=[N+]=CC(=O)CC[C@H](N)C(=O)O  cell viability             116
1                      Clc1ccc2c(c1Cl)CNCC2  cell viability             102
2  C1CCC(C(CC2CCCCN2)C2CCCCC2)CC1.O=C(O)/C=C\C(=O)O (stereo not given)  cell viability            92.8
3  Cc1noc2c1-c1ccccc1C(c1ccc(Cl)cc1)=N[C@H]2CC(N)=O  cell viability            62.9
4    Cc1coc2c1C(=O)C(=O)c1c-2ccc2c(C)cccc12  cell viability             103
5      O=C(O)c1nn(Cc2ccc(Cl)cc2Cl)c2ccccc12  cell viability            93.7
6           O=C(O)C(S)=Cc1c[nH]c2ccc(F)cc12  cell viability             111
7           O=C(O)C(Cl)Cl [Dichloroacetate]  cell viability            95.8
8         C=CCc1ccc2c(c1O)C(=O)c1ccccc1C2=O  cell viability             101
9  O=C(c1ccc(OCCN2CCCCC2)cc1)c1c(-c2ccc(O)cc2)sc2cc(O)ccc12  cell viability            96.9

----------
System: MV4-11
test_description: cell viability (% survival relative to DMSO control, bortezomib = 0%); higher = less cytotoxic
experimental_conditions: 100 nM; 72 h
property_name: cell viability

>>> df
                                    compound   property_name  endpoint_value
 0    CCOC(=O)[C@@]1(CCCCCCOc2ccc(Cl)cc2)CO1  cell viability             99%
 1  CCOC(=O)[C@H]1O[C@@H]1C(=O)N[C@@H](CC(C)C)C(=O)NCCC(C)C  cell viability            110%
 2  CCCc1nn(C)c2c(O)nc(-c3cc(S(=O)(=O)N4CCN(C)CC4)ccc3OCC)nc12  cell viability            101%
 3          O=P(O)(O)C(O)(Cn1ccnc1)P(=O)(O)O  cell viability           88.7%
 4  CN(C)c1nc(O)c2[nH]cnc2n1 [2-Dimethylamino-6-hydroxypurine]  cell viability           97.2%
 5      O=C1Nc2ccccc2/C1=C\NCCc1ccc(O)c(O)c1  cell viability           93.8%
 6  CC12CCC(O)CC1CCC1C2CCC2(C)C(C3=CC(=O)OC3)CCC12O (centres undefined)  cell viability            100%
 7           O=C(O)C(S)=Cc1c[nH]c2ccc(F)cc12  cell viability           81.7%
 8  O=C(O)c1cc2sccc2[nH]1 [4H-thieno[3,2-b]pyrrole-5-carboxylic acid]  cell viability           93.2%
 9      O=C(O)c1nn(Cc2ccc(Cl)cc2Cl)c2ccccc12  cell viability           88.9%
10  Cc1ccc(S(=O)(=O)NC2c3ccccc3Oc3ccccc32)cc1  cell viability            100%
11  CC(C)C[C@H](NC(=O)[C@@H](O)[C@H](N)Cc1ccccc1)C(=O)O  cell viability            109%
12  C1CCC(C(CC2CCCCN2)C2CCCCC2)CC1.O=C(O)/C=C\C(=O)O (centres undefined)  cell viability           95.3%
13           O=C(O)C(Cl)Cl [Dichloroacetate]  cell viability           83.5%
